MEASUREMENT_DESCRIPTION: chemical genetic growth profiling, strain panel (AID 1159580);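 also: tested at 20 µM; growth read once vehicle control cultures reached saturation at 30 °C; lower values mean less growth of the strain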
CONDITION_SET: S. cerevisiae deletion strains, growth OD, locus YPL106C, strain sse1
The campaign covered roughly 5,500 compounds. About 2,000 (36%) were called active. Roughly 18% stayed inconclusive and do not appear here. Rule as the data show it: active = normalized growth mostly below about 0.91 (no sharp cut-off); inconclusive = no clear call, values can overlap the other calls; inactive = mostly above about 0.92. This is one part of the list.
Select the matching outcome among TRUE for active, FALSE for inactive

- MOLECULE: "C[C@H](CCC(=O)O)[C@H]1CCC2C3C(=O)CC4CC(=O)CC[C@]4(C)C3CC(=O)[C@@]21C (stereo not given in full)"
  LABEL: "FALSE"
- MOLECULE: "CC(CCC(=O)O)[C@H]1CCC2C3C(=O)C[C@@H]4CC(=O)CC[C@]4(C)C3CC(=O)[C@@]21C (stereo not given in full)"
  LABEL: "FALSE"

Input: What is the recorded call for this molecule in the test? CC(CCC(=O)O)[C@H]1CCC2C3CC[C@@H]4C[C@H](O)CC[C@]4(C)C3C=C[C@@]21C (stereo not given in full)
Output: TRUE

Input: Please share the test call associated with NCC(N)C(=O)c1ccccc1 (stereo not given) .
Output: FALSE

Input: For this molecule, state the assay outcome: `NCC(=O)c1ccccc1`
Output: FALSE

Input: I would be grateful if you could indicate the recorded call for `O=C(CC(=O)c1ccccc1)c1ccccc1` .
Output: TRUE

Input: Given `CS(=O)(=O)c1ccc([C@@H](O)[C@@H](CO)NC(=O)C(Cl)Cl)cc1` , state the outcome it received in this test.
Output: FALSE

Input: Query: recorded result category for CC(=O)O[C@H]1CC[C@@]2(C)C(C[C@@H](OC(C)=O)[C@@]3(C)C4=CC(=O)O[C@@H](c5ccoc5)[C@]4(C)CCC23)C1(C)C (stereo not given in full) in this test
Output: FALSE

Input: What is the recorded call for this molecule in the test? `CC(=O)Nc1ccc(S(=O)(=O)Nc2onc(C)c2C)cc1`
Output: FALSE

Input: Kindly provide the recorded test outcome for the following molecule: CC(=O)O[C@@H]1CC2C(C)(C)[C@H](O)C=C[C@]2(C)C2CC[C@]3(C)C(=CC(=O)O[C@H]3c3ccoc3)[C@@]21C (stereo not given in full)
Output: FALSE
